Reference source for all entries: patent US20210388087A1

Molecular target: T1, Human CD3eg linker (human)
T1 construct: Single-chain construct; also called recombinant human CD3
T1 chain: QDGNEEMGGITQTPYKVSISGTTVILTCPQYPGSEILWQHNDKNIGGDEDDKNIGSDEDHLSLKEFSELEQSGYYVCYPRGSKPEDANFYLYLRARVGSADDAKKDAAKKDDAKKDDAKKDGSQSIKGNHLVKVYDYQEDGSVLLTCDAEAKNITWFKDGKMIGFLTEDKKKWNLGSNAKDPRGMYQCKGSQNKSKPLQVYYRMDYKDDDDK
Test: SPR; fold vs parent H183/L072
Known fold change of affinity of a selection of binders
Hi! Could you send only the number? It should be in fold, unit omitted.

BINDER: H183/L072 VL T31K (antibody, name in Kabat numbering, V domains shown) VH: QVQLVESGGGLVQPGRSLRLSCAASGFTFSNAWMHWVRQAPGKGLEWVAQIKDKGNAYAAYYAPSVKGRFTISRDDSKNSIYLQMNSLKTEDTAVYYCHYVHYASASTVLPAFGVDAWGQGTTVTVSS VL: DIVMTQSPLSLPVTPGEPASISCQASQELVHMNRNKYLHWYQQKPGQAPRLLIYKVSNRFPGVPDRFSGSGSGTDFTLKISRVEAEDVGVYYCAQGTSVPFTFGQGTKLEIK
NUMERIC_VALUE: 0.4

As a next step, examine the binder that follows.
Query: Item H183/L072 VL S93G (antibody, name in Kabat numbering, V domains shown) VH: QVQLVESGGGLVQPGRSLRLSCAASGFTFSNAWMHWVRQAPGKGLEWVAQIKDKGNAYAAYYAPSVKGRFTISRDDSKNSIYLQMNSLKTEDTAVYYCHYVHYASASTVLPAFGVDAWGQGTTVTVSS VL: DIVMTQSPLSLPVTPGEPASISCQASQELVHMNRNTYLHWYQQKPGQAPRLLIYKVSNRFPGVPDRFSGSGSGTDFTLKISRVEAEDVGVYYCAQGTGVPFTFGQGTKLEIK has what recorded fold change of affinity?
Reply: 0.8
